System: Human Gal3 peptides
Experiment: Gal3 peptide binding ELISA (Example 8)
Details: antibody 5 μg/mL
Method: Gal3 peptide binding activity of additional exemplary anti-Gal3 antibodies was assessed with the same peptides as described in FIG. 18 (SEQ ID NOs: 3-26). […] The reaction was stopped with 1M HCl (JT Baker, 5620-02) and read using a plate reader (Molecular Devices) at absorbance of 450 nm.
RECORDED_METRIC: binding to any of the tested Gal3 peptides

[
  {
    "MOLECULE": "847.15F9: anti-Gal3 antibody (antibody, V domains shown) VH: QVQMKQSGPGLVQPSQSLSITCTVSGFSLINYGVHWVRQSPGKGLEWLGVIWSGGSTDYNAAFISRLSISKDNSKSQVFFKMNSLQADDTAIYYCARIYYYGRGYAMDYWGQGTSVTVSS VL: QIVLSQSPAILSASPGEKVTMTCRASSSVTYMYWYQQKPGSSPQPWIYATSNLASGVPARFSGSGSGTSYSLTISRVEAEDAATYYCQQWSSNPLTFGAGTKLELK",
    "RESULT_VALUE": "not found to bind"
  },
  {
    "MOLECULE": "847.2B8: anti-Gal3 antibody (antibody, V domains shown) VH: QVQLKQSGPGLVQPSQSLSITCTVSGFSLINYGVHWVRQSPGKGLEWLGVIWSGGSTDYNAAFISRLSISKDNSKSQVFFKMNSLQADDTAIYYCARIYYYGRGYAMDYWGQGTSVTVSS VL: QILLSQSPAILSASPGEKVTMTCRASSSVTYMYWYQQKPGSSPQPWIYATSNLASGVPARFSGSGSGTSYSLTISRVEAEDAATYYCQQWSSNPLTFGAGTKLELK",
    "RESULT_VALUE": "not found to bind"
  },
  {
    "MOLECULE": "847.16D10: anti-Gal3 antibody (antibody, V domains shown) VH: QVQLQQSGAELVRPGASVKLSCKASGYTFTGYWLNWVKQRPGQGLEWIGMIDPSDSETHYNQVFKDKATMTVDRSSSTAYMQLSGLTSEDSAVYYCANSNYASGSWGQGTTLTVSS VL: QAVVTQESALTTSPGETVTLTCRSSTGAVTTSNYANWDQEKPDHLFTGLIGGTNNRAPGVPARFSGSLIGDKAALTITGAQTEDEAIYFCALWYSNHLVFGGGTKVTVL",
    "RESULT_VALUE": "not found to bind"
  },
  {
    "MOLECULE": "847.11D6: anti-Gal3 antibody (antibody, V domains shown) VH: EVKLQQSGPELMKPGTSMKISCKASGYSFTGYTMNWVKQSHGKNLEWIGLINPYNGGTNYNQKFRGKATLSVDKSSNTAYMELLSLTSEDSAVYYCARKDDYYGSSPYALDYWGQGTSVTVSS VL: DIVMTQSPASLAVSLGQRATISCRASESVENHVNSFMHWFQQKPGQPPKLLIYRASNLQSGIPARFSGSGSRTDFTLTINPVEADDVATYYCQQNNEVPYTFGGGTKLEIK",
    "RESULT_VALUE": "not found to bind"
  }
]
